- tested on: HLA-DRB3*0101 (human)
- protocol text: competition binding
- condition: modification not given
pIC50: −log10 of the molar value.
test readout: pIC50

binder="PEYWDGETRKVKAHS [p11]" test_readout=pIC50 value_comparator=< endpoint_result=4.00
binder="RCWALSFYPAEITLT [p40]" test_readout=pIC50 value_comparator== endpoint_result=5.40
binder="EGLPKPLTLRWEPSS [p49]" test_readout=pIC50 value_comparator== endpoint_result=5.33
binder="CDVGSDWRFLRGYHQ [p19]" test_readout=pIC50 value_comparator=< endpoint_result=4.00
binder="KPLTLRWEPSSQPTI [p50*]" test_readout=pIC50 value_comparator== endpoint_result=5.45
binder="HRVDLGTLRGYYNQS [p13*]" test_readout=pIC50 value_comparator=< endpoint_result=4.00
binder="HSMRYFFTSVSRPGR [p1*]" test_readout=pIC50 value_comparator=< endpoint_result=4.00
binder="SQRMEPRAPWIEQEGP [p9]" test_readout=pIC50 value_comparator=< endpoint_result=4.00
binder="KDYIALKEDLRSWTA [p25]" test_readout=pIC50 value_comparator== endpoint_result=4.07
binder="GTLRGYYNQSEAGSH [p15*]" test_readout=pIC50 value_comparator=< endpoint_result=4.00
binder="HKWEAAHVAEQLRAY [p30]" test_readout=pIC50 value_comparator== endpoint_result=6.09
binder="RSWTAADMAAQTTKH [p28]" test_readout=pIC50 value_comparator== endpoint_result=6.00
binder="MRYFFTSVSRPGRGE [p2*]" test_readout=pIC50 value_comparator=< endpoint_result=4.00
binder="RGYYNQSEAGSHTVQ [p16*]" test_readout=pIC50 value_comparator=< endpoint_result=4.00
binder="GTFQKWAAVVVPSGQ [p45*]" test_readout=pIC50 value_comparator== endpoint_result=7.35
